target: LCMV endonuclease domain (ENDO, ENDO-WT) (Lymphocytic choriomeningitis virus (strain Armstrong), UniProt P14240, D119A); construct: N-terminal endonuclease domain of L (residues 1-196), N-terminal hexahistidine tag, pDEST14, E. coli Rosetta (DE3) pLysS; IMAC, Q Sepharose, Superdex 200; experiment: biochemical
# key: entry, value: Kd
A number alone suffices; assume µM.

Any idea what its Kd is? The molecule is O=C(O)/C(O)=C/C(=O)C1(Cc2ccc(Cl)cc2)CCN(Cc2ccccc2)CC1 [compound 2]
0.89

What does the data say about its Kd? Entry: O=C(O)C(=O)CC(=O)c1ccccc1 [compound 1, 2,4-dioxo-4-phenylbutanoic acid]
18.8

* * *

target: LCMV endonuclease domain (ENDO, ENDO-WT) (Lymphocytic choriomeningitis virus (strain Armstrong)); construct: N-terminal endonuclease domain of L (residues 1-196), N-terminal hexahistidine tag, pDEST14, E. coli Rosetta (DE3) pLysS; IMAC, Q Sepharose, Superdex 200; test: biochemical
Entries and their measured pKd follow.
Remember, pKd is on a log scale: it is -log10 of the molar concentration.

| Compound | pKd |
| --- | --- |
| O=C(O)C(O)=CC(=O)c1ccc(-c2ccccc2)cc1 [compound 3] | 7.30 |
| O=C(O)C(=O)CC(=O)c1ccccc1 [compound 1, 2,4-dioxo-4-phenylbutanoic acid] | 5.27 |
| O=C(O)C(O)=CC(=O)c1ccc2ccc3ccccc3c2c1 [compound 4] | 6.60 |

// below: pKd requested for another compound
Given the compound O=C(O)/C(O)=C/C(=O)C1(Cc2ccc(Cl)cc2)CCN(Cc2ccccc2)CC1 [compound 2] , what is its reported pKd?
6.29
